Kindly supply the reported PBM binding z-score values for the records listed here.
tested on: LXRb:RXRa (NR concentration 270 nM, RXRa partner concentration 90 nM); assay: PBM binding z-score (relative to random genomic background probes); higher = stronger binding; sequences stand for … in GC…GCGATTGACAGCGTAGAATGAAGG
Just the number, please.

Problem: Specify measured PBM binding z-score for "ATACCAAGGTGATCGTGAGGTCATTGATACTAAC" .
Solution: 3.53

Problem: Specify measured PBM binding z-score for "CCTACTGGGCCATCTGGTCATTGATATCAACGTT" .
Solution: -0.0941

Problem: Specify measured PBM binding z-score for "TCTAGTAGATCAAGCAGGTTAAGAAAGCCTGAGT" .
Solution: 0.194
